assay.notes: chemical genetic growth profiling, strain panel (AID 1159580);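 note: tested at 20 µM; growth read once vehicle control cultures reached saturation at 30 °C; 1 = growth at the plate median or of vehicle wells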
test.conditions: S. cerevisiae deletion strains, growth OD, locus YHR030C, strain SLT2
The campaign covered roughly 5,500 compounds. About 2,000 (36%) were called active. Inconclusive results (about 18%) are left out. Cut-off read from the data, not from the text of the source: active = normalized growth mostly below about 0.91 (no sharp cut-off); inconclusive = no clear call, values can overlap the other calls; inactive = mostly above about 0.92. This is one part of the list.
Possible outcomes: active, inactive

compound	assigned.category
COc1c(C(C)C)oc2cc3oc(=O)ccc3cc12	active
CC1(C)C=CC(=O)[C@@]2(C)C1CC(=O)[C@]1(C)C2CC[C@@]2(C)[C@H](c3ccoc3)OC(=O)C3OC321 (stereo not given in full)	inactive
COC1=CC(=O)C(C(=O)c2ccccc2)=CC1=O	inactive
OC1(C(F)(F)F)CC(c2ccccc2)=NN1 (stereo not given)	inactive
CCCCCc1c2c(cc(O)c1C(=O)O)OC(=O)c1c(cc(OC)cc1C(=O)CCCC)O2	inactive
CC(=O)O[C@@H]1CC2C(C)(C)C(=O)C=C[C@]2(C)C2CC[C@@]3(C)[C@H](c4ccoc4)OC(=O)[C@H]4O[C@]43[C@@]21C (stereo not given in full)	inactive
CC(C)c1c(O)ccc2c1CCC1[C@@](C)(C=O)CCC[C@]21C (stereo not given in full)	active
COc1ccccc1/C=C\C(=O)O	inactive
O=c1ccc2c(O)c3ccoc3cc2o1	inactive
CC1(C)C(=O)C=C[C@@]2(C)C1C[C@@H](O)[C@]1(C)C2CC[C@@]2(C)[C@H](c3ccoc3)OC(=O)[C@H]3O[C@]321 (stereo not given in full)	inactive

###

assay.notes: chemical genetic growth profiling, strain panel (AID 1159580);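 note: tested at 20 µM; growth read once vehicle control cultures reached saturation at 30 °C; 1 = growth at the plate median or of vehicle wells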
test.conditions: S. cerevisiae deletion strains, growth OD, locus YER133W, strain GLC7, stronger effect = lower value
In all, about 5,500 compounds went through this assay and about 2,000 (36%) were called active. Another 18% or so got no clear call; they are omitted. The list shows a part of the results.
assay.endpoint: normalized growth

>>> print(df.to_string())
                              smiles_string   endpoint_result
0   O=C1Nc2ccccc2/C1=C/c1ccc(C(F)(F)F)cc1Cl  0.953 (inactive)
1  O=C1Nc2ccccc2/C1=C\c1cccc([N+](=O)[O-])c1      1 (inactive)
2            O=C1/C(=C/c2ccccn2)CCc2ccccc21  0.897 (inactive)
3  Cc1ccc(C)n1-c1ccc(/C=C2/C(=O)Nc3ccccc32)cc1  0.932 (inactive)
4           O=C1Nc2ccccc2/C1=C\c1ccc(Cl)cc1  0.815 (inactive)
5   O=C(Nc1ccccc1)Nc1ccc(Cl)cc1[N+](=O)[O-]  0.959 (inactive)

###

assay.notes: chemical genetic growth profiling, strain panel (AID 1159580);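 note: tested at 20 µM; growth read once vehicle control cultures reached saturation at 30 °C; 1 = growth at the plate median or of vehicle wells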
test.conditions: S. cerevisiae deletion strains, growth OD, locus YBL061C, strain skt5
The whole screen tested about 5,500 compounds, of which about 2,000 (36%) were called active. Another 18% or so got no clear call; they are omitted. No stated cut-off is given here; in the data, active means normalized growth mostly below about 0.91 (no sharp cut-off); inconclusive means no clear call, values can overlap the other calls; inactive means mostly above about 0.92. The list shows a part of the results.
Outcomes: yes (1) = active, no (0) = inactive

>>> print(df.to_string())
                                    compound  assigned_category
 0                  CCOC(=O)c1c(C)cc(OC)cc1O             no (0)
 1  Oc1cc2c(cc1O)C1c3ccc(O)c(O)c3OCC1(O)C2 (stereo unspecified)             no (0)
 2  C[C@]12CCC3c4ccc(O)cc4CCC3C1C[C@@H](O)[C@@H]2O (stereo partly specified)             no (0)
 3  O=C1C=C2C(=CCOC2O)O1 (stereo unspecified)            yes (1)
 4  CC(C)c1c(O)ccc2c1CCC1[C@@](C)(CO)CCC[C@]21C (stereo partly specified)             no (0)
 5                COc1cccc2c(C)cc(=O)[nH]c12             no (0)
 6     CN(C)c1ccc2nc3ccc(=[N+](C)C)cc-3sc2c1             no (0)
 7  CC(=O)Oc1ccc2c(c1OC(C)=O)OCC1(O)Cc3c(cc(OC(C)=O)c(OC(C)=O)c3OC(C)=O)C21 (stereo unspecified)             no (0)
 8  CC(=O)Oc1ccc2c(c1C(C)C)CCC1C(C)(C)CCC[C@]21C (stereo partly specified)             no (0)
 9  C[C@H]1O[C@H](OC2[C@@H](O)[C@@H](O)C(O)[C@H](O)[C@H]2O)[C@@H](N)C[C@@H]1N=C(N)C(=O)O (stereo partly specified)             no (0)
10    O=C(O)C1=C[C@@H](O)[C@@H](O)[C@H](O)C1             no (0)
